Where do the numbers come from? From PubChem BioAssay (NCI).

- Tested on: T-47D breast
- Protocol Details: NCI tumour cell line growth inhibition, 48 h
Parameter Measured: TGI

// for each molecule in input: emit TGI
1. O=C(OC(CNc1c(C(=O)c2ccccc2)c(=O)n(Cc2ccccc2)c(=O)n1Cc1ccccc1)CN1CCOCC1)c1ccccc1 (stereo not given)
2. Cc1c(NC(=O)c2cc(C(N)=O)nc3cc(F)ccc23)c(C(F)(F)F)nn1Cc1ccc(C#N)cc1
3. COC(=O)/C=C\n1ncc(=O)[nH]c1=O
4. COC1C(CO)OC(n2c3ccccc3c3c4c(c5c6ccccc6[nH]c5c32)C(=O)NC4=O)C(OC(=O)C(N)CCCCN)C1O (stereo not given)
5. Cc1ccc(C(=O)Nc2ccc(S(=O)(=O)O)c3cc(S(=O)(=O)O)cc(S(=O)(=O)O)c23)cc1NC(=O)Nc1cc(C(=O)Nc2ccc(S(=O)(=O)O)c3cc(S(=O)(=O)O)cc(S(=O)(=O)O)c23)ccc1C
6. O=C1c2ccccc2-c2c1c1ccccc1c(=O)n2-c1cccnc1

**A:**
1. > 100 µM
2. 31.3 µM
3. > 100 µM
4. 0.187 µM
5. > 87.5 µM
6. > 100 µM

// for each molecule in input: emit TGI
1. c1ccc(N=C2SC(c3ccccc3)(c3ccccc3)c3ccccc32)cc1
2. Cn1c(-c2ccc(/C=N/N=C/c3ccc(-c4c[n+]5ccccc5n4C)cc3)cc2)c[n+]2ccccc12
3. O=C1/C(=C/c2cccc(O)c2)COc2ccccc21

**A:**
1. > 100 µM
2. > 100 µM
3. 21.1 µM

// for each molecule in input: emit TGI
1. CC12CCC(C(=O)n3c1nc1ccccc13)C(C)(C)O2 (stereo not given)
2. CC(C)(O)c1coc(S(=O)(=O)/N=C(\O)Nc2c3c(cc4c2CCC4)CCC3)c1
3. N#CC(C#N)=C/C=C(\Sc1ccc(F)c(Cl)c1)c1ccc(Cl)cc1
4. CC(NC(=O)C(C)C(=O)Nc1ccc(C(F)(F)F)cc1)C(N)=O (stereo not given)
5. CCOC(=O)c1cc(NC(=O)c2cc(NC(=O)c3cc(NC(=O)c4c(-c5ccccc5)noc4C)cn3C)cn2C)cn1C

**A:**
> 100 µM
> 100 µM
46.3 µM
> 100 µM
> 100 µM

###

- Test system: M14 melanoma
- Protocol Details: NCI tumour cell line growth inhibition, 48 h; in the data active = GI50 below about 0.43 µM; inactive = the rest
Select the correct class. Options are 1 (yes) for active, 0 (no) for inactive and nothing else.

**Q:** Lab log entry: COc1cc(/C=C2\CC3C4CCC5=CC(=O)CC[C@]5(C)C4CC[C@]3(C)C2=O)ccc1OCCCn1ccnc1 (stereo partly drawn) — outcome as called in the assay?
**A:** 0 (no)

**Q:** Lab log entry: COc1cc2c(cc1O)N=C[C@@H]1C[C@@H](F)CN1C2=O — outcome as called in the assay?
**A:** 0 (no)

Now look at this one.
**Q:** Lab log entry: c1cc(N2CCCC2)c2nc(-c3[nH]ncc3Nc3ncnc4[nH]ccc34)[nH]c2c1 — outcome as called in the assay?
**A:** 1 (yes)

###

- Test system: RXF 393 renal
- Protocol Details: NCI tumour cell line growth inhibition, 48 h; in the data active = GI50 below about 0.43 µM; inactive = the rest
Select the correct class. Options are yes = active, no = inactive and nothing else.

Solved entries (count: 3):
**Q:** Lab log entry: COC1C(CO)OC(n2c3ccccc3c3c4c(c5c6ccccc6[nH]c5c32)C(=O)NC4=O)C(OC(=O)C(N)CCCCN)C1O (centres undefined) — outcome as called in the assay?
**A:** yes

**Q:** Lab log entry: COc1cc(/C=C2\CC3C4CCC5=CC(=O)CC[C@]5(C)C4CC[C@]3(C)C2=O)ccc1OCCCn1ccnc1 (some centres undefined) — outcome as called in the assay?
**A:** yes

**Q:** Lab log entry: O=C1C=CC(=O)c2c1c1c(c3c2C2c4ccccc4C3c3ccccc32)C2c3ccccc3C1c1ccccc12 — outcome as called in the assay?
**A:** no

Now look at this one.
**Q:** Lab log entry: Cn1cc(C2=C(Sc3ccccc3)C(=O)NC2=O)c2ccccc21 — outcome as called in the assay?
**A:** no

###

Exercise: state measured TGI for each of the compounds provided.
- Tested on: DLD-1 colon
- Protocol Details: NCI tumour cell line growth inhibition, 48 h

Past entries and their recorded results:
**Q:** Give me measured TGI, please, for this compound: CC1=C(C(=O)CC(=O)C(=O)Nc2cccc(Cl)c2C)Sc2ccccc2N1
**A:** > 100 µM

**Q:** Give me measured TGI, please, for this compound: COc1ccc(C23c4ccc(OC)cc4CC2(c2ccc([N+](=O)[O-])cc2)Cc2cc(OC)ccc23)cc1 (stereo not drawn)
**A:** > 100 µM

We next turn to a different compound, shown below.
**Q:** Give me measured TGI, please, for this compound: CCCCCCCCCCCCCCCCCCOP(=O)([O-])OC1CC[N+](C)(C)CC1
**A:** 22.4 µM

###

- Test system: SK-MEL-5 melanoma
- Protocol Details: NCI tumour cell line growth inhibition, 48 h
Parameter Measured: TGI

Past entries and their recorded results:
**Q:** Give me measured TGI, please, for this molecule: Cc1cc2c(c(C(N)=O)c1C)-c1cccc(Cl)c1C2=O
**A:** > 100 µM

**Q:** Give me measured TGI, please, for this molecule: CCCCCC(/C=N/Nc1ccccc1)C(O)(C(F)(F)F)C(F)(F)F (centres undefined)
**A:** > 100 µM

**Q:** Give me measured TGI, please, for this molecule: Nc1nc[n+](Cc2ccccc2CCO)c2nc[nH]c12
**A:** > 100 µM

**Q:** Give me measured TGI, please, for this molecule: Cc1ccc(S(=O)(=O)NC(CCC(=O)NN)C(=O)NN)cc1 (centres undefined)
**A:** > 100 µM

**Q:** Give me measured TGI, please, for this molecule: CC(NC(=O)C(C)C(=O)Nc1ccc(C(F)(F)F)cc1)C(N)=O (centres undefined)
**A:** > 100 µM

**Q:** Give me measured TGI, please, for this molecule: CCNC(=S)NNC(=O)c1nsc2ccccc12
**A:** > 100 µM

// for each molecule in input: emit TGI
1. Nc1ccc2c(c1)Cc1cc(Cl)c(Cl)cc1-2
2. O=C1c2ccccc2-c2c1c1ccccc1c(=O)n2-c1cccnc1
3. COc1ccc2c(c1OC)CN1CCc3cc4c(cc3C1C2)OCO4 (centres undefined)

**A:**
1: > 100 µM; 2: > 100 µM; 3: > 100 µM

// for each molecule in input: emit TGI
1. Cc1ccc(C[N+](C)(C)N)cc1C
2. Cc1cc(S(=O)(=O)Nc2nc(N)nc(N(C)C)n2)c(S)cc1Cl
3. COC(=O)[C@@]12OC[C@]34[C@H]([C@@H](O)[C@@H]1O)[C@@]1(C)CC(=O)C(OC(C)=O)=C(C)[C@@H]1C[C@H]3OC(=O)[C@H](OC(=O)C=C(C)C)[C@@H]24

**A:**
1. > 10 µM
2. > 10 µM
3. 1.33 µM

// for each molecule in input: emit TGI
1. O=c1[nH]c2cc(C(F)(F)F)ccc2nc1CBr
2. O=C(C(=NC12CC3CC(CC(C3)C1)C2)NNc1ccc([N+](=O)[O-])cc1[N+](=O)[O-])C(Br)C(=O)c1ccccc1 (centres undefined)

**A:**
["28.5 µM", "2.5 µM"]

// for each molecule in input: emit TGI
1. Cc1ccc(O)c(N=Nc2c(O)cc(S(=O)(=O)O)c3ccccc23)c1
2. COc1cccc2c1C(=O)c1c(O)c3c(c(O)c1C2=O)C[C@@](O)(C(=O)CO)C[C@@H]3OC1CC(N)C(O)C(C)O1 (some centres undefined)
3. COC(O)C12OC3CO[Si](C(C)C)(C(C)C)O[Si](C(C)C)(C(C)C)OC3C1Oc1nc(=O)ccn12 (centres undefined)
4. CC(=O)Oc1ccc2c(c1OC(C)=O)CCC1C2=CC[C@]2(C)C(=O)CCC12 (some centres undefined)
5. Cc1ncc([N+](=O)[O-])n1CC(O)Cn1ccnc1[N+](=O)[O-] (centres undefined)
6. CC(C)(C)c1[nH]nc2c1C(c1cc3ccccc3[nH]c1=O)Nc1cc(C(=O)Nc3ccc(Cl)cc3)ccc1N2 (centres undefined)
7. COc1ccc(Nc2nc3cc(C(F)(F)F)ccc3nc2C(=O)O)cc1OC

**A:**
1: 77.6 µM; 2: 340 nM [middle of 5 runs]; 3: 21.1 µM; 4: 1.55 µM; 5: > 100 µM; 6: 3.55 µM; 7: 47.9 µM

// for each molecule in input: emit TGI
1. COc1c(OCCCN2CCOCC2)ccc2c3n(c(=NC(=O)c4cnc(N)nc4)nc12)CCN3
2. c1ccc(N=C2SC(c3ccccc3)(c3ccccc3)c3ccccc32)cc1
3. CC(=O)OCC1CCC(=C2C(=O)OC(C)(C)OC2=O)N1 (centres undefined)
4. Cc1ccc2nc(C=Nc3ccccc3Cl)cc(C)c2c1
5. COc1ccc2c(c1)CC1Cc3cc(OC)c(OC)cc3CN1CC2 (centres undefined)
6. CC/C(CC(=O)CCC(=O)Nc1c(C)cccc1C)=N\NC(=O)NN
7. C=CCN(C(=O)OC(C)(C)C)C1=CC2C(C)=CN(S(=O)(=O)c3ccccc3)C2C(OCc2ccccc2)=C1 (centres undefined)

**A:**
1.51 µM [middle of 4 runs]
> 100 µM
> 100 µM
29.5 µM
> 100 µM
> 100 µM
> 100 µM

// for each molecule in input: emit TGI
1. O=C(Nc1cccc(C(F)(F)F)c1)C(=O)C(C(=O)c1ccc2ccccc2c1)C1OC(=O)c2ccccc21 (centres undefined)
2. O=C1C=Cc2cscc21
3. CCOC(=O)C(=O)/C=C(\C)Nc1c(NC2OCC(OC(C)=O)C(OC(C)=O)C2OC(C)=O)nc(SC)[nH]c1=O (centres undefined)
4. NC(N)=NS(=O)(=O)c1ccc(NC(=O)c2cccc3c(NNc4ccc(C(=O)O)cc4)c4ccccc4nc23)cc1
5. Cc1ccnc(NS(=O)(=O)c2ccc(NC3=CC(=O)C(=O)c4ccccc43)cc2)n1
6. COc1ccc(/C=C/C(=O)C(C)C)cc1

**A:**
1: 24.4 µM; 2: > 100 µM; 3: > 100 µM; 4: > 100 µM; 5: > 100 µM; 6: > 100 µM
